Reference source for all entries: patent US7786141B2

molecular target: M1 muscarinic receptor (Homo sapiens); construct: expressed in transfected cells; host or cells: CHO (M1-CHO); experiment: Functional mobilization of intracellular calcium (FLIPR) in M1-CHO cells; assay type: cell-based; details: M1 receptor, calcium mobilization; read-out: M1 Efficacy
Sequence (P11229 whole entry): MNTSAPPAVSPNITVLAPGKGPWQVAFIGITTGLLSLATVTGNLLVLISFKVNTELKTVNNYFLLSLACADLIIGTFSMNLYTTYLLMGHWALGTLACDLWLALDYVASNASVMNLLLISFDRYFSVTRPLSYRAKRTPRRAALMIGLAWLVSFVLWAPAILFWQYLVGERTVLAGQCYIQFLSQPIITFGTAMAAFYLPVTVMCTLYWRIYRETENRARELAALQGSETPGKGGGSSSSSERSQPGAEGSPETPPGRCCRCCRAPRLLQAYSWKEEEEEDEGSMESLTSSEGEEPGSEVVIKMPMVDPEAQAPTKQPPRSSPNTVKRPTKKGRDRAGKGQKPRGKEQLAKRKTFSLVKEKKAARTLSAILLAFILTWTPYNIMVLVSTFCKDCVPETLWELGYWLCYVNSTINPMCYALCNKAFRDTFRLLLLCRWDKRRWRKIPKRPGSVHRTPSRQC
measuredEndpoint: Emax

CC=CCOC(=O)N1C2CCC1CC(N1CCC3(CC1)CN(C(=O)N(C)C)c1ccc(F)cc13)C2 (centres unmarked) :: 65 to 85%

In: Give the reported value of Emax for this record: CCOC(=O)N1C2CCC1CC(CN1CCC3(CC1)CNc1ccc(F)cc13)C2 (centres unmarked)
Out: < 65%

In: Specify Emax for Clc1ccc2c(c1)C1(CCN(C3CCCCC3)CC1)CN2 and stop.
Out: > 85%
